# system-tested: Adrenergic receptor alpha-1 (Rattus norvegicus, UniProt P15823+P23944+P43140)
# Sequence (P15823 whole entry): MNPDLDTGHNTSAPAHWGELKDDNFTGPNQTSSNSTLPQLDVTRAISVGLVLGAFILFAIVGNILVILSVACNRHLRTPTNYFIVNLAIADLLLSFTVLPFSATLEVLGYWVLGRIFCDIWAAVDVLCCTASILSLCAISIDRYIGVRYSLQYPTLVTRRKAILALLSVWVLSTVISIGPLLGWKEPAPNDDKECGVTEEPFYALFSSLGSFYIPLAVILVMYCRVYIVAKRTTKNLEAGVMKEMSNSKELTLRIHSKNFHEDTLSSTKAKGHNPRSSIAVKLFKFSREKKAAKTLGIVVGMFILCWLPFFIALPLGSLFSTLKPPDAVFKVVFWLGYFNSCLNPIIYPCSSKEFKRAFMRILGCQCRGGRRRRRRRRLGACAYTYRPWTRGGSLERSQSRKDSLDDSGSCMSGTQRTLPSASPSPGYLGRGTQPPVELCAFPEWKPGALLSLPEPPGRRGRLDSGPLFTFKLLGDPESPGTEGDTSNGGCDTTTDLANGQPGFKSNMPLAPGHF
# Sequence (P23944 whole entry): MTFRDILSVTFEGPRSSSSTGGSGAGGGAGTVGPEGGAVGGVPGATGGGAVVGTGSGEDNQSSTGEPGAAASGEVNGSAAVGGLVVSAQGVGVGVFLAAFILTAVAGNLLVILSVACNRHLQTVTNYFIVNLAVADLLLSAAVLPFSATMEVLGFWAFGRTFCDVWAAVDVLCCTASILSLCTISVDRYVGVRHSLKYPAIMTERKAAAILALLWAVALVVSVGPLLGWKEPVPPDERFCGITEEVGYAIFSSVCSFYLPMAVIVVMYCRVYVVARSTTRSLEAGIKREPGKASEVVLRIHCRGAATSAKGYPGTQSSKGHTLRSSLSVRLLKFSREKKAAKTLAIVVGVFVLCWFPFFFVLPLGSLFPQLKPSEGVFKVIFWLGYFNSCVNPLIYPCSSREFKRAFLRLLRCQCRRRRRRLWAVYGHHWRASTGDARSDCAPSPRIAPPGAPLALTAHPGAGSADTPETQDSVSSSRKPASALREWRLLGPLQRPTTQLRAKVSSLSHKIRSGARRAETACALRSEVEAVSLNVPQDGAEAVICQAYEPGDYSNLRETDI
# Sequence (P43140 whole entry): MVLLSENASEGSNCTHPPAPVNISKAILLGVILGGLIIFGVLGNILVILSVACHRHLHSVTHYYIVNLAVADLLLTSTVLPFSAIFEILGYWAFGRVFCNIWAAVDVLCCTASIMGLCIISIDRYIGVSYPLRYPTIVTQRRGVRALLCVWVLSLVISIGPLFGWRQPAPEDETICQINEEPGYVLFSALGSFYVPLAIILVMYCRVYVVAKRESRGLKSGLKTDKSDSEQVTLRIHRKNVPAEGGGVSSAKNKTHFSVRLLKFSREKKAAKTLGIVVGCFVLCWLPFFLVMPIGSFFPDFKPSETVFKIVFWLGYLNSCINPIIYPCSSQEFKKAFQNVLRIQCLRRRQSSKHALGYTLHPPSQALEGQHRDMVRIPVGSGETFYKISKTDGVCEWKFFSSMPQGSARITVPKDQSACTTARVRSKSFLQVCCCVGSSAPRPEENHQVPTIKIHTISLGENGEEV
# experimental-details: Alpha-1-adrenolytic activity was assessed from the ability to inhibit [3H]prazosin binding to rat cerebral cortex preparation
# Format: tissue-based
measured-endpoint: IC50 (µM)

Look over these answered cases.
CO/C(O)=C1\C(C)=NC(C)=C(C(=O)OCCN(C)C(C)COc2ccccc2)C1c1cccc([N+](=O)[O-])c1.Cl (stereo not drawn)	0.38
COC(=O)C1=C(C)NC(C)=C(C(=O)OCCN(C)C[C@H]2COc3ccccc3O2)[C@@H]1c1cccc([N+](=O)[O-])c1.Cl (stereo in doubt; 6a)	2.4
CO/C(O)=C1\C(C)=NC(C)=C(C(=O)OCCN(C)C[C@@H]2COc3ccccc3O2)[C@H]1c1cccc([N+](=O)[O-])c1.Cl	2
CC1=NC(C)=C(C(=O)OCCN(C)CC2COc3ccccc3O2)C(c2cccc([N+](=O)[O-])c2)/C1=C(\O)OC(C)C.Cl (stereo not drawn)	3.5
CC1=NC(C)=C(C(=O)OC(C)CN(C)CC2COc3ccccc3O2)C(c2cccc([N+](=O)[O-])c2)/C1=C(\O)OC(C)C.Cl (stereo not drawn)	3.9
COC(=O)C1=C(C)NC(C)=C(C(=O)OCCN(C)C[C@H]2COc3ccccc3O2)[C@@H]1c1cccc([N+](=O)[O-])c1.Cl (stereo in doubt; 6b)	2.3

I: CO/C(O)=C1\C(C)=NC(C)=C(C(=O)OCCN(C)CC2COc3ccccc3O2)C1c1ccccc1[N+](=O)[O-] (stereo not drawn)
II: COC(=O)C1=C(C)NC(C)=C(C(=O)OCCN(C)C[C@H]2COc3ccccc3O2)[C@@H]1c1cccc([N+](=O)[O-])c1.Cl (racemic)
III: CO/C(O)=C1\C(C)=NC(C)=C(C(=O)OCCN(C)C(c2ccccc2)C2CCCCC2)C1c1cccc([N+](=O)[O-])c1.Cl (stereo not drawn)
IV: CO/C(O)=C1\C(C)=NC(C)=C(C(=O)OCCN2CCC(n3c(O)nc4ccccc43)CC2)C1c1cccc([N+](=O)[O-])c1 (stereo not drawn)
Input line: Reorder: IC50, max to min. The labels, placed in the requested order, form the answer.
Output line: III, II, I, IV
